Exercise: state measured growth for each of the compounds provided.
Tested on: HL-60(TB) leukemia
METHOD_SUMMARY: NCI-60 one-dose screen, 48 h (100 = growth as untreated, 0 = no growth, -100 = all killed)
CONDITION: 10 µM unless noted
This is part of a sample that, as a whole, favours compounds with a hit. Of some 83,000 tested, about 20% had one in any assay.
Response body: numeric value in %, unit text excluded.

Challenge: Provide measured growth value, entry: Cc1cn(C)cn1
Response given: 116

Challenge: Provide measured growth value, entry: CCOc1ccc(C(O)CN(C)Cc2ccccc2)cc1Cl (stereo not drawn)
Response given: 103

Challenge: Provide measured growth value, entry: CCCCCCCCSC1=CC(=O)C(OC)=C(OC)C1=O
Response given: -10.5

Entry source: PubChem BioAssay (NCI)
